Experiment: Plasma pharmacokinetics of milademetan
Format: in vivo, human
Details: human, plasma, oral, Mean t1/2, day 21, across 60- to 120-mg cohorts
parameter: half-life

{"mol smiles": "CC1(C)CCC2(CC1)N[C@@H](C(=O)N[C@@H]1CC[C@@H](C(N)=O)OC1)[C@H](c1ccnc(Cl)c1F)[C@]21C(=O)Nc2cc(Cl)ccc21", "result": "18.1 to 26.1 h"}

====

Assay: Plasma pharmacokinetics of milademetan
Type: in vivo, human
Details: human, plasma, po, 60 mg/d

{"mol smiles": "CC1(C)CCC2(CC1)N[C@@H](C(=O)N[C@@H]1CC[C@@H](C(N)=O)OC1)[C@H](c1ccnc(Cl)c1F)[C@]21C(=O)Nc2cc(Cl)ccc21", "AUC(0-inf) (µg·h/mL)": 6.32}
